- TEST NAME: Clearance in rat at 1 mg/kg, iv
- Type: ADME, organism-based
- Set-up: dose 1 mg/kg, route intravenous
- TEST CONTEXT: in vivo
QUANTITY: clearance (L/h/kg)
Please state the figure in L/h/kg; there is no need to write the unit.

Sample records with clearance:
[[record]]
smiles_text = "CC(C)c1onc(-c2c(Cl)cccc2Cl)c1COc1ccc(-c2ccc3cc(C(=O)O)[nH]c3c2)cc1"
measurement_unit = "L/h/kg"
test_value = 1.8

[[record]]
smiles_text = "CC(C)c1onc(-c2c(Cl)cccc2Cl)c1COc1ccc(-c2ccc3nc(C(=O)O)ccc3c2)cc1"
measurement_unit = "L/h/kg"
test_value = 1.92

[[record]]
smiles_text = "CC(C)c1onc(-c2c(Cl)cccc2Cl)c1COc1ccc(-c2ccc3c(C(=O)O)csc3c2)cc1"
measurement_unit = "L/h/kg"
test_value = 3

[[record]]
smiles_text = "CC(C)c1onc(-c2c(Cl)cccc2Cl)c1COc1ccc(-c2ccc3[nH]c(C(=O)O)cc3c2)cc1"
measurement_unit = "L/h/kg"
test_value = 3.3

[[record]]
smiles_text = "CC(C)c1onc(-c2c(Cl)cccc2Cl)c1COc1ccc(-c2ccc3oc(C(=O)O)cc3c2)cc1"
measurement_unit = "L/h/kg"
test_value = 4.68


Please examine the following record next.
State the recorded clearance for this entry: "CC(C)c1onc(-c2c(Cl)cccc2Cl)c1COc1ccc(-c2ccc3c(C(=O)O)c[nH]c3c2)cc1"
4.56

---

Below, each entry is listed with its recorded Vd.
- TEST NAME: Volume of distribution at steady state in rat at 1 mg/kg, iv
- Assay type: ADME, organism-based
- Design: dose 1 mg/kg, route intravenous
- TEST CONTEXT: in vivo, read-out: Vdss
# unit: L/kg | format: bare number

[[record]]
smiles_text = "CC(C)c1onc(-c2c(Cl)cccc2Cl)c1COc1ccc(-c2ccc3c(C(=O)O)c[nH]c3c2)cc1"
measurement_unit = "L/kg"
test_value = 1.2

[[record]]
smiles_text = "CC(C)c1onc(-c2c(Cl)cccc2Cl)c1COc1ccc(-c2ccc3[nH]c(C(=O)O)cc3c2)cc1"
measurement_unit = "L/kg"
test_value = 1.3

[[record]]
smiles_text = "CC(C)c1onc(-c2c(Cl)cccc2Cl)c1COc1ccc(-c2ccc3oc(C(=O)O)cc3c2)cc1"
measurement_unit = "L/kg"
test_value = 1.7

[[record]]
smiles_text = "CC(C)c1onc(-c2c(Cl)cccc2Cl)c1COc1ccc(-c2ccc3nc(C(=O)O)ccc3c2)cc1"
measurement_unit = "L/kg"
test_value = 3.4

[[record]]
smiles_text = "CC(C)c1onc(-c2c(Cl)cccc2Cl)c1COc1ccc(-c2ccc3c(C(=O)O)csc3c2)cc1"
measurement_unit = "L/kg"
test_value = 0.73


Pending molecule:
Form field: reported Vd of "CC(C)c1onc(-c2c(Cl)cccc2Cl)c1COc1ccc(-c2ccc3cc(C(=O)O)[nH]c3c2)cc1"
0.5

---

Parameter: bioavailability. Scope: all listed entries.
- TEST NAME: Oral bioavailability in rat at 5 mg/kg
- Format: ADME, organism-based
- TEST CONTEXT: in vivo
Record the value in %, omitting the unit from your answer.

Some compounds with known bioavailability results, for comparison:
[[record]]
smiles_text = "CC(C)c1onc(-c2c(Cl)cccc2Cl)c1COc1ccc(-c2ccc3c(C(=O)O)csc3c2)cc1"
measurement_unit = "%"
test_value = 0

[[record]]
smiles_text = "CC(C)c1onc(-c2c(Cl)cccc2Cl)c1COc1ccc(-c2ccc3cc(C(=O)O)[nH]c3c2)cc1"
measurement_unit = "%"
test_value = 3


What value of bioavailability has been reported for the following compound? "CC(C)c1onc(-c2c(Cl)cccc2Cl)c1COc1ccc(-c2ccc3[nH]c(C(=O)O)cc3c2)cc1"
7.1

Thanks! And "CC(C)c1onc(-c2c(Cl)cccc2Cl)c1COc1ccc(-c2ccc3oc(C(=O)O)cc3c2)cc1" ?
20

Repeat for the following compound: "CC(C)c1onc(-c2c(Cl)cccc2Cl)c1COc1ccc(-c2ccc3c(C(=O)O)c[nH]c3c2)cc1"
5.1

---

- TGT: UniProtKB Q96RI1
- TEST NAME: Agonist activity at human amino-terminal polyhistidine-tagged FXR alpha LBD (amino acids 237 to 472) assessed as cofactor peptide SRC-1 interaction with receptor ligand binding domain after 2 hrs by FRET assay
Hi all, reminder that labels come from EC50, split as c1 = under 90 nM, c2 = from 90 nM up to 700 nM, c3 = 700 nM and over

# count of solved cases: 3
[[record]]
molecule = "CC(C)c1onc(-c2c(Cl)cccc2Cl)c1COc1ccc(-c2ccc3sc(C(=O)O)cc3n2)cc1"
assigned_category = "c2"

[[record]]
molecule = "CC(C)c1onc(-c2c(Cl)cccc2Cl)c1COc1ccc(-c2nc3cccc(C(=O)O)c3[nH]2)cc1"
assigned_category = "c3"

[[record]]
molecule = "CC(C)c1onc(-c2c(Cl)cccc2Cl)c1COc1ccc(-c2ccc3c(c2)CC(C(=O)O)C3)cc1 (configuration not stated)"
assigned_category = "c3"


Attention now turns to another entry.
State the band of "CC(C)c1onc(-c2c(Cl)cccc2Cl)c1COc1ccc(-c2ccc3oc(C(=O)O)cc3c2)cc1"
c1

---

- Tested on: Rattus norvegicus
- TEST NAME: Dose normalized AUC in rat at 5 mg/kg, po
- Assay type: ADME, organism-based
- Set-up: dose 5 mg/kg, route oral
- TEST CONTEXT: in vivo
QUANTITY: AUC/dose (ng·kg·h/mL/mg)
Note: unit ng·kg·h/mL/mg is implicit; provide only the numeric part.

What value of measured AUC/dose is listed for "CC(C)c1onc(-c2c(Cl)cccc2Cl)c1COc1ccc(-c2ccc3[nH]c(C(=O)O)cc3c2)cc1" ?
22

---

- TGT: Bile acid receptor (Homo sapiens)
- Sequence (Q96RI1 whole entry, the tested form may be a part): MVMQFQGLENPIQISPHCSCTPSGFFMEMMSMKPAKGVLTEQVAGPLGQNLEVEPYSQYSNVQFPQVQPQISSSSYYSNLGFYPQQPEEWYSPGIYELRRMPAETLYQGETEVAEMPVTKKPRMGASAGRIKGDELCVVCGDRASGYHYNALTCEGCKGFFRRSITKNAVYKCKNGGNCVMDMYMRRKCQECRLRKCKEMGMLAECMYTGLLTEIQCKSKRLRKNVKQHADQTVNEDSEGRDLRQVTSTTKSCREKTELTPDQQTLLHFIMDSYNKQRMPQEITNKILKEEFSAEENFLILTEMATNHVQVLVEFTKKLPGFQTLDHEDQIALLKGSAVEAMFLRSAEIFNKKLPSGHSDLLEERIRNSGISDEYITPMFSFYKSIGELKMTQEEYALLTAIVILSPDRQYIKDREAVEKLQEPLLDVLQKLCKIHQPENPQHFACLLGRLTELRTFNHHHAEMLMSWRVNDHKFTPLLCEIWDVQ
- TEST NAME: Agonist activity at human amino-terminal polyhistidine-tagged FXR alpha LBD (amino acids 237 to 472) assessed as maximum efficacy measuring cofactor peptide SRC-1 interaction with receptor ligand binding domain after 2 hrs by FRET assay relative to GW4064
Outcome: 1 (yes) for Emax of at least 70%; 0 (no) for anything lower.

Reference set, count: 4
[[record]]
compound = "CC(C)c1onc(-c2c(Cl)cccc2Cl)c1COc1ccc(-c2ccc3cc(C(=O)O)[nH]c3c2)cc1"
assigned_category = "1 (yes)"

[[record]]
compound = "CC(C)c1onc(-c2c(Cl)cccc2Cl)c1COc1ccc(-c2ccc3c(c2)CC(C(=O)O)C3)cc1 (configuration not stated)"
assigned_category = "1 (yes)"

[[record]]
compound = "CC(C)c1onc(-c2c(Cl)cccc2Cl)c1COc1ccc(-c2ccc3sc(C(=O)O)cc3n2)cc1"
assigned_category = "0 (no)"

[[record]]
compound = "CC(C)c1onc(-c2c(Cl)cccc2Cl)c1COc1ccc(-c2ccc3sc(C(=O)O)cc3c2)cc1"
assigned_category = "1 (yes)"


Please examine the following record next.
I'd appreciate it if you could say whether "CC(C)c1onc(-c2c(Cl)cccc2Cl)c1COc1ccc(-c2ccc3oc(C(=O)O)cc3c2)cc1" has Emax at least equal to 70%.
1 (yes)

---

- TEST NAME: Terminal half life in rat at 1 mg/kg, iv
- Assay type: ADME, organism-based
- Design: dose 1 mg/kg, route intravenous
- TEST CONTEXT: in vivo, read-out: beta t1/2
QUANTITY: half-life (h)
Report as a plain number; the unit h is understood.

The cases that follow already have their half-life on record.
[[record]]
smiles_text = "CC(C)c1onc(-c2c(Cl)cccc2Cl)c1COc1ccc(-c2ccc3cc(C(=O)O)[nH]c3c2)cc1"
measurement_unit = "h"
test_value = 1.17

[[record]]
smiles_text = "CC(C)c1onc(-c2c(Cl)cccc2Cl)c1COc1ccc(-c2ccc3c(C(=O)O)c[nH]c3c2)cc1"
measurement_unit = "h"
test_value = 0.433

[[record]]
smiles_text = "CC(C)c1onc(-c2c(Cl)cccc2Cl)c1COc1ccc(-c2ccc3nc(C(=O)O)ccc3c2)cc1"
measurement_unit = "h"
test_value = 2.83

[[record]]
smiles_text = "CC(C)c1onc(-c2c(Cl)cccc2Cl)c1COc1ccc(-c2ccc3oc(C(=O)O)cc3c2)cc1"
measurement_unit = "h"
test_value = 1.02

[[record]]
smiles_text = "CC(C)c1onc(-c2c(Cl)cccc2Cl)c1COc1ccc(-c2ccc3c(C(=O)O)csc3c2)cc1"
measurement_unit = "h"
test_value = 0.367


Now take the following molecule into account.
Dear colleague, I am looking for the recorded half-life of the following molecule: "CC(C)c1onc(-c2c(Cl)cccc2Cl)c1COc1ccc(-c2ccc3[nH]c(C(=O)O)cc3c2)cc1"
1.48

---

- TGT: Bile acid receptor (Homo sapiens)
- TEST NAME: Agonist activity at human amino-terminal polyhistidine-tagged FXR alpha LBD (amino acids 237 to 472) assessed as maximum efficacy measuring cofactor peptide SRC-1 interaction with receptor ligand binding domain after 2 hrs by FRET assay relative to GW4064
Measured Emax, listed per entry for reference.
State just the number; it will be interpreted in %.

[[record]]
smiles_text = "CC(C)c1onc(-c2c(Cl)cccc2Cl)c1COc1ccc(-c2nc3cccc(C(=O)O)c3[nH]2)cc1"
tgt = "Bile acid receptor (Homo sapiens)"
test_value = 61

[[record]]
smiles_text = "CC(C)c1onc(-c2c(Cl)cccc2Cl)c1COc1ccc(-c2ccc3c(C(=O)O)c[nH]c3c2)cc1"
tgt = "Bile acid receptor (Homo sapiens)"
test_value = 107

[[record]]
smiles_text = "CC(C)c1onc(-c2c(Cl)cccc2Cl)c1COc1ccc(-c2ccc3c(C(=O)O)csc3c2)cc1"
tgt = "Bile acid receptor (Homo sapiens)"
test_value = 115

[[record]]
smiles_text = "CC(C)c1onc(-c2c(Cl)cccc2Cl)c1COc1ccc(Cn2ccc3ccc(C(=O)O)cc32)cc1"
tgt = "Bile acid receptor (Homo sapiens)"
test_value = 38

[[record]]
smiles_text = "CC(C)c1onc(-c2c(Cl)cccc2Cl)c1COc1ccc(-c2ccc3nc(C(=O)O)ccc3c2)cc1"
tgt = "Bile acid receptor (Homo sapiens)"
test_value = 105


Find Emax (Bile acid receptor (Homo sapiens)) for the entry "CC(C)c1onc(-c2c(Cl)cccc2Cl)c1COc1ccc(-c2ccc3c(C(=O)O)cccc3c2)cc1"
134

Here is the next compound: "CC(C)c1onc(-c2c(Cl)cccc2Cl)c1COc1ccc(-c2ccc3[nH]c(C(=O)O)cc3c2)cc1"
81

Can you check "CC(C)c1onc(-c2c(Cl)cccc2Cl)c1COc1ccc(/C=C/c2cccc(C(=O)O)c2)c(Cl)c1" next?
100
